Property: viscosity; scope: individual compounds
experiment: xn = mol fraction of the nth substance listed; details: 298.15 K; 101 kPa; x2 = 0.15
value_type: viscosity (mPa·s)

compound="CCCCCCCCCO + CCCO" experimental_value=7.846
compound="CCCCCCCCCO + CCO" experimental_value=7.706
compound="CCCCCCCCCO + CCCCO" experimental_value=7.816
compound="CCCCCCCCCO + CO" experimental_value=7.356

----------
Property: viscosity; scope: individual compounds
assay: xn = mol fraction of the nth substance listed; conditions: 308.15 K; 101 kPa; x2 = 0.1
value_type: viscosity (mPa·s)

compound="CCCCCCCCCO + CCCO" experimental_value=5.92
compound="CCCCCCCCCO + CCO" experimental_value=5.872
compound="CCCCCCCCCO + CO" experimental_value=5.765
compound="CCCCCCCCCO + CCCCO" experimental_value=5.878

----------
Here, each record is paired with measured viscosity data.
test: xn = mol fraction of the nth substance listed; details: 298.15 K; 101 kPa; x2 = 0.3
± gives the uncertainty stated by the source.
value_type: viscosity

compound="CCCCCCCCCO + CCCO" experimental_value="6.618 ± 0.064 mPa·s"
compound="CCCCCCCCCO + CCO" experimental_value="6.34 ± 0.06 mPa·s"
compound="CCCCCCCCCO + CO" experimental_value="5.711 ± 0.054 mPa·s"
compound="CCCCCCCCCO + CCCCO" experimental_value="6.704 ± 0.065 mPa·s"

----------
assay: xn = mol fraction of the nth substance listed; conditions: 318.15 K; 101 kPa; x2 = 0.35
value_type: viscosity (mPa·s)

compound="CCCCCCCCCO + CO" value_type=viscosity experimental_value=2.994
compound="CCCCCCCCCO + CCCCO" value_type=viscosity experimental_value=3.418
compound="CCCCCCCCCO + CCO" value_type=viscosity experimental_value=3.275
compound="CCCCCCCCCO + CCCO" value_type=viscosity experimental_value=3.399

----------
assay: xn = mol fraction of the nth substance listed; conditions: 308.15 K; 101 kPa; x2 = 0.4
± gives the uncertainty stated by the source.
Here, each record is paired with measured viscosity data.
value_type: viscosity

compound="CCCCCCCCCO + CCO" experimental_value="4.052 ± 0.037 mPa·s"
compound="CCCCCCCCCO + CCCCO" experimental_value="4.398 ± 0.042 mPa·s"
compound="CCCCCCCCCO + CCCO" experimental_value="4.282 ± 0.04 mPa·s"
compound="CCCCCCCCCO + CO" experimental_value="3.579 ± 0.032 mPa·s"

----------
# viscosity per entry
conditions: 308.15 K; 101 kPa
value_type: viscosity (mPa·s)

molecule=CN(C)CCCO value_type=viscosity experimental_value=4.22
molecule="CC1CCCCC1=O (centres undefined)" value_type=viscosity experimental_value=2.168
molecule=CCCCCCCC[n+]1ccn(C)c1.F[B-](F)(F)F value_type=viscosity experimental_value=193.8
molecule="CC(O)CN(C)C (centres undefined)" value_type=viscosity experimental_value=1.097

----------
Consider the following molecules and their measured viscosity readings.
assay: xn = mol fraction of the nth substance listed; settings: 308.15 K; 101 kPa; x2 = 0.85
value_type: viscosity (mPa·s)

molecule="CCCCCCCCCO + CO" value_type=viscosity units_text=mPa·s experimental_value=1.025
molecule="CCCCCCCCCO + CCCCO" value_type=viscosity units_text=mPa·s experimental_value=2.476
molecule="CCCCCCCCCO + CCCO" value_type=viscosity units_text=mPa·s experimental_value=2.106
molecule="CCCCCCCCCO + CCO" value_type=viscosity units_text=mPa·s experimental_value=1.569
